Study target: UniProt P43088
Assay overview: In vitro test of inhibition of human FP receptor activity (PGF2α-induced calcium flux in FP-expressing CHEM1 cells)
Assay setup: PGF2α 2 nM, some mean values of multiple determinations
pIC50: −log10 of the molar value.
Measure: pIC50

Examples with answers:
CCC1CCCN(c2nc3ccc(Br)cc3c(C(=O)NCC(CCC(=O)O)c3ccccc3C(F)(F)F)c2C)C1 (single isomer, unassigned; (-)) [Example 194] : 7.96
COc1ccccc1C(CCC(=O)O)CNC(=O)c1c(C)c(N2CCCCC2)nc2ccc(Br)cc12 (single isomer, unassigned; (+)) [Example 235] : 8.85
Cc1c(N2CCCC(C)C2)nc2ccc(Br)cc2c1C(=O)NCC(CCC(=O)O)c1ccccc1Cl (single isomer, unassigned; (+)) [Example 47] : 7.85
Cc1c(N2CCC(C)CC2)nc2ccc(Br)cc2c1C(=O)NCC(CCC(=O)O)c1cc(F)ccc1Cl (racemic) [Example 18] : 7.10
Cc1c(N2CNC(=O)C2)nc2ccc(Br)cc2c1C(=O)NCC(CCC(=O)O)c1ccccc1Cl (racemic) [Example 88] : 6.06
Cc1c(N2CCCC(O)C2)nc2ccc(Br)cc2c1C(=O)NCC(CCC(=O)O)c1ccccc1Cl (stereo not shown) [Example 55] : 6.96
Cc1c(N2CCCC(C)C2)nc2ccc(Br)cc2c1C(=O)NCC(CCC(=O)O)c1ccccc1C(F)(F)F (single isomer, unassigned; (-)) [Example 200] : 7.77
Cc1c(N(C)CCc2ccccc2)nc2ccc(Br)cc2c1C(=O)NCC(CCC(=O)O)c1ccccc1Cl (racemic) [Example 95] : 7.19

[A] Cc1ccc(F)cc1C(CCC(=O)O)CNC(=O)c1c(C)c(N2CCCCC2)nc2ccc(Br)cc12 (racemic) [Example 147]
[B] Cc1c(N2CCC(F)(F)C2)nc2ccc(Br)cc2c1C(=O)NCC(CCC(=O)O)c1ccccc1Cl (racemic) [Example 37]
**Q:** Please indicate which entry, A or B , has the lower recorded pIC50 value. Record your answer as the label of the chosen record.
**A:** B

[A] Cc1c(N2CC(F)(F)C(F)(F)C2)nc2ccc(Br)cc2c1C(=O)NCC(CCC(=O)O)c1ccccc1Cl (racemic) [Example 72]
[B] Cc1c(N2CCCC(C)(C)C2)nc2ccc(Br)cc2c1C(=O)NCC(CCC(=O)O)c1ccccc1Cl (racemic) [Example 42]
**Q:** Higher pIC50: A or B ? Record your answer as the label of the chosen record.
**A:** A
(A: 7.10, B: 6.89)

====

Study target: FP receptor (Homo sapiens (Human))
Sequence (P43088 whole entry): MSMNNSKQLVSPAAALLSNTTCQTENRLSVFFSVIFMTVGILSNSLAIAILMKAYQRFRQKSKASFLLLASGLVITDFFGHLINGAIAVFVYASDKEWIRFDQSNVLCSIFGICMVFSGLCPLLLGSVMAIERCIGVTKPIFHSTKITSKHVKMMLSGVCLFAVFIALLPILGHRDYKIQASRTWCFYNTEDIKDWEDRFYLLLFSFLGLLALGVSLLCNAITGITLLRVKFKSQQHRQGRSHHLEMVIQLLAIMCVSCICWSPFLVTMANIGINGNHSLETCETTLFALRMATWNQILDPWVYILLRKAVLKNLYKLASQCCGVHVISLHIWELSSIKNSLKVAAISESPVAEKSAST
Assay overview: In vitro test of inhibition of human FP receptor activity (PGF2α-induced calcium flux in FP-expressing CHEM1 cells)
Type: cell-based
Assay setup: PGF2α 2 nM, some mean values of multiple determinations
pIC50: −log10 of the molar value.
Measure: pIC50

CCC1CCCN(c2nc3ccc(Br)cc3c(C(=O)NCC(CCC(=O)O)c3cc(F)ccc3F)c2C)C1 (single isomer, unassigned; (+)) [Example 227] : 7.24

[P] Cc1c(N2CCC(O)C2)nc2ccc(Br)cc2c1C(=O)NCC(CCC(=O)O)c1cc(F)ccc1Cl (stereo not drawn) [Example 16]
[Q] Cc1c(N2CCCC(F)(F)C2)nc2ccc(Br)cc2c1C(=O)NCC(CCC(=O)O)c1c(F)cccc1C(F)(F)F (single isomer, unassigned; (-)) [Example 167]
**Q:** Please indicate which entry, P or Q , has the lower recorded pIC50 value. Record your answer as the label of the chosen record.
**A:** P
